The measured values listed here are drawn from the supplement of paper PMC9233669.

# Test system: biotinyl-Phe-oxazolone
# assay-text: self-aminoacylation, catalytic enhancement (BFO) (fold over background); higher = more active; k-Seq, kA / k0A0; sequences stand for … in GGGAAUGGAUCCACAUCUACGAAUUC…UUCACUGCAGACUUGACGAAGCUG
This sample holds only a part of the variants without activity.
value-kind: self-aminoacylation
API note: the answer field is a bare number with no unit suffix.

Here are 3 sequences together with their reported answers.
AAGAUAGCUAAUAGUCGCAAG [Fam3.1 aminoacylation ribozyme variant]    2.4
AUUCACCUCGGUCAUCGGGCG [Fam2.2 aminoacylation ribozyme variant]    19.5
AUUACUCUGGUCAUGGAGUGA [Fam2.1 aminoacylation ribozyme variant]    3.58

IN: Name the reported self-aminoacylation value associated with the sequence CUACUCCAAACCAUCGGUCUG [Fam1A.1 aminoacylation ribozyme variant]
OUT: 1.16

IN: Name the reported self-aminoacylation value associated with the sequence ACGUGUGCUAAUAGUCGCAAG [Fam3.1 aminoacylation ribozyme variant]
OUT: 4.86
